- MEASURED_ON: Carnitine O-palmitoyltransferase 1, liver isoform (Rattus norvegicus)
- Sequence (P32198 whole entry, canonical isoform): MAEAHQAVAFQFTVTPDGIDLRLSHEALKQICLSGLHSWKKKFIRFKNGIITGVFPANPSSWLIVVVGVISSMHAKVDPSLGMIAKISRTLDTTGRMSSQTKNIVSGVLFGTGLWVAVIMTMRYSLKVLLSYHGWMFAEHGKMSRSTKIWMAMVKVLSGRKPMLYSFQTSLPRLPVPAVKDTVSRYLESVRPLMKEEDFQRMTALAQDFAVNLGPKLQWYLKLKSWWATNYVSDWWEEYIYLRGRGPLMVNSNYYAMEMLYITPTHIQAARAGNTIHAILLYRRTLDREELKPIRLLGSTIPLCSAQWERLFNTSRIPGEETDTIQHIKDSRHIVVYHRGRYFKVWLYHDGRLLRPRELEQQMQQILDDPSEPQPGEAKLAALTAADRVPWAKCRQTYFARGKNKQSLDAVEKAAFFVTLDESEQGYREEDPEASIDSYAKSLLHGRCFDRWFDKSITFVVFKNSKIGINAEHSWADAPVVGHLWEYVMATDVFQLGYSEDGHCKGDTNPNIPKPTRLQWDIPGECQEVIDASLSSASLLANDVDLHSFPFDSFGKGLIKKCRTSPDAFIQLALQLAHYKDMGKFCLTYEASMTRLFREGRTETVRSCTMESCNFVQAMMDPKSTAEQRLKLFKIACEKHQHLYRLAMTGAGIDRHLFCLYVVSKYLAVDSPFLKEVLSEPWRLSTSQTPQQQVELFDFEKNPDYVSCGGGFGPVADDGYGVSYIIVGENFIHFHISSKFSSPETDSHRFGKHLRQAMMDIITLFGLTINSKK
- TEST_PROTOCOL: Inhibition of carnitine palmitoyl transferase (CPT), assessed with isolated rat liver mitochondria
pIC50: −log10 of the molar value.
RECORDED_METRIC: pIC50

| MOLECULE | REPORTED_RESULT |
| --- | --- |
| CCCCCCCCCCCCCCC1(C(=O)O)CO1 (racemic) [PALMOXIRATE] | 7.40 |
| CCCCCCCCCCCCCCC1(C(=O)SCCNC(=O)CCNC(=O)C(O)C(C)(C)COP(=O)(O)OP(=O)(O)OC[C@H]2O[C@@H](n3cnc4c(N)ncnc43)[C@H](O)[C@@H]2OP(=O)(O)O)CO1 (mixture of isomers) | 7.52 |
| CCCCCCCCCCCCCC[C@]1(C(=O)O)CO1 | 7.52 |

P. CCCCCCCCCCCCCCC1(C(=O)OC)CO1 (racemic) [METHYL PALMOXIRATE]
Q. CCCCCCCCCCCCCC[C@]1(C(=O)OC)CO1
R. CCCCCCCCCCCCCC[C@]1(C(=O)SCCNC(=O)CCNC(=O)C(O)C(C)(C)COP(=O)(O)OP(=O)(O)OC[C@H]2O[C@@H](n3cnc4c(N)ncnc43)[C@H](O)[C@@H]2OP(=O)(O)O)CO1 (stereo partly specified)
Prompt line: // ranking: key=pIC50, reverse=True Output spec: a listing of the labels in the requested order.
Response line: R, Q, P
